Where these numbers come from: patent US7294637B2

- Study system: UniProt:Q01959
- Procedure details: DA uptake: displacement of dopamine ligands in vitro (methods of Gu et al.)
- Cond: DA Uptake, Uptake Profile (IC50, nM), displacement of dopamine ligands in vitro
Measured property: IC50

As a guide, the following entries are already answered.
Molecule | Study system | Test result
OC[C@H]1[C@@H](COc2ccc(C(F)(F)F)cc2)CCCN1CC1(c2ccc(Cl)cc2)CCC1 (racemic) [compound 82] | UniProt:Q01959 | < 100 nM
O[C@@H](CN1CCC[C@H](COc2ccc(C(F)(F)F)cc2)C1)C1(c2ccc(Cl)cc2)CCC1 | UniProt:Q01959 | < 10 nM
OC(CN1CCCC(CCc2ccccc2)C1)c1ccc(Cl)cc1 (single isomer, unassigned) [compound 141] | UniProt:Q01959 | < 1000 nM

Input line: Please look up its IC50: OC(CN1CCCC(COc2ccccc2)C1)c1ccc(Cl)cc1 (stereo not shown)
Output line: < 100 nM

###

- Study system: UniProt P23975
- Sequence (P23975 whole entry): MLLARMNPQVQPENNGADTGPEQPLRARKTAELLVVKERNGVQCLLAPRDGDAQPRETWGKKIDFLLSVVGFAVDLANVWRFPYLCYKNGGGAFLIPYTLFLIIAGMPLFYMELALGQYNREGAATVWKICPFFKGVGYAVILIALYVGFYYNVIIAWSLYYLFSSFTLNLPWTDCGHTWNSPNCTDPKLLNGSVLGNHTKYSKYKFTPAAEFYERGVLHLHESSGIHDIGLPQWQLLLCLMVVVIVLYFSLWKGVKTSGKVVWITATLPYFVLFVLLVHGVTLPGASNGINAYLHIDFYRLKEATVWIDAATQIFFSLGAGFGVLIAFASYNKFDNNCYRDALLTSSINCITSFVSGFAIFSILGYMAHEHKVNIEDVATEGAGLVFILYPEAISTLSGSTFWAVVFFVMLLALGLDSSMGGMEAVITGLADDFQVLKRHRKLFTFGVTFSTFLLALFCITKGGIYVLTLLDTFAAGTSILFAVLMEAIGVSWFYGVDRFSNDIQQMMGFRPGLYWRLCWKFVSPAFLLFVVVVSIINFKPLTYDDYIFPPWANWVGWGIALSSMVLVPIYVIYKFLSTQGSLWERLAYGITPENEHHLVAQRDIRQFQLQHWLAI
- Procedure details: Functional activity, norephinephrine uptake inhibition in MDCK cell lines
- Type: cell-based
Each entry below lists one item and its recorded EC50 value.

As a guide, the following entries are already answered.
Compound | EC50
FC(F)(F)c1ccc(COC[C@@H]2CCCN(CC3(c4ccc(Cl)cc4)CCC3)C2)cc1 | < 0.1 µM
Clc1ccc(C2(CN3CCCC(COc4ccc5c(c4)OCO5)C3)CCC2)cc1 (stereo not drawn) | < 1 µM

Now look at this entry.
Input line: Please look up its EC50: FC(F)(F)c1ccc(COC[C@H]2CCCN(CC3(c4ccc(Cl)cc4)CCC3)C2)cc1
Output line: < 0.1 µM

###

Each entry below lists one item and its recorded pIC50 value.
- Study system: serotonin transporter (Homo sapiens)
- Sequence (P31645 whole entry): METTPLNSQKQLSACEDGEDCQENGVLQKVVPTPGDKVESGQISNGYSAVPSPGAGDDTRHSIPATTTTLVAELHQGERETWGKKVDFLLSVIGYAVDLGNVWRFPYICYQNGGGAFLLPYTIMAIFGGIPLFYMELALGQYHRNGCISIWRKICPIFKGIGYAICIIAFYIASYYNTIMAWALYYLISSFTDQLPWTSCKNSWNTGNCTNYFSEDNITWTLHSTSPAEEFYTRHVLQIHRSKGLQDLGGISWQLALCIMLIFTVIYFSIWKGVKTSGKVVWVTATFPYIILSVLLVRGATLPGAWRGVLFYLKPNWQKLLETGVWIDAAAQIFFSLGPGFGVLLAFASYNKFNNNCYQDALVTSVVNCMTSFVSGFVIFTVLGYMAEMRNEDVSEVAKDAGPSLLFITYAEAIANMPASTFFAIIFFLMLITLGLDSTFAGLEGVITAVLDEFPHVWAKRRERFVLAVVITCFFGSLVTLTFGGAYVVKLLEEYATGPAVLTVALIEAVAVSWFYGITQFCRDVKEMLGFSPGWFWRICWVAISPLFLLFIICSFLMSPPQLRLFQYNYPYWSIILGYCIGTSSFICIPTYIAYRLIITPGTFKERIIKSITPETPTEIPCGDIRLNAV
- Procedure details: 5-HT uptake: displacement of serotonin ligands in vitro (methods of Gu et al.)
- Type: binding
- Cond: displacement of serotonin ligands in vitro; read-out: 5-HT Uptake, Uptake Profile (IC50)
pIC50: −log10 of the molar value.

Input line: Please look up its pIC50: COc1ccc(C2(CN3CCC[C@@H](COc4ccc(OC(F)(F)F)cc4)C3)CCC2)cc1 [compound 170]
Output line: > 6.00

Input line: Please look up its pIC50: OC(CN1CCCC(CCc2ccc(C(F)(F)F)cc2)C1)C1(c2ccc(Cl)cc2)CCC1 (single isomer, unassigned) [compound 192]
Output line: > 6.00

Input line: Please look up its pIC50: COc1ccc2[nH]cc(CCN3CCCC(COc4ccc(C(F)(F)F)cc4)C3)c2c1 (stereo not drawn) [compound 220]
Output line: > 7.00

Input line: Please look up its pIC50: OC(CN1CCCC(COc2ccc(C(F)(F)F)cc2)C1)C1(c2ccc3c(c2)OCO3)CCC1 (stereo not drawn) [compound 165]
Output line: > 7.00

Input line: Please look up its pIC50: CO[C@H](CN1CCC[C@H](COc2ccc(C(F)(F)F)cc2)C1)C1(c2ccc(Cl)cc2)CCC1 [compound 163]
Output line: > 6.00

Input line: Please look up its pIC50: FC(F)(F)c1ccc(OCC2CCCN(CC3COc4ccccc4O3)C2)cc1 (single isomer, unassigned) [compound 177]
Output line: > 6.00

###

- Study system: dopamine transporter (Homo sapiens)
- Sequence (Q01959 whole entry): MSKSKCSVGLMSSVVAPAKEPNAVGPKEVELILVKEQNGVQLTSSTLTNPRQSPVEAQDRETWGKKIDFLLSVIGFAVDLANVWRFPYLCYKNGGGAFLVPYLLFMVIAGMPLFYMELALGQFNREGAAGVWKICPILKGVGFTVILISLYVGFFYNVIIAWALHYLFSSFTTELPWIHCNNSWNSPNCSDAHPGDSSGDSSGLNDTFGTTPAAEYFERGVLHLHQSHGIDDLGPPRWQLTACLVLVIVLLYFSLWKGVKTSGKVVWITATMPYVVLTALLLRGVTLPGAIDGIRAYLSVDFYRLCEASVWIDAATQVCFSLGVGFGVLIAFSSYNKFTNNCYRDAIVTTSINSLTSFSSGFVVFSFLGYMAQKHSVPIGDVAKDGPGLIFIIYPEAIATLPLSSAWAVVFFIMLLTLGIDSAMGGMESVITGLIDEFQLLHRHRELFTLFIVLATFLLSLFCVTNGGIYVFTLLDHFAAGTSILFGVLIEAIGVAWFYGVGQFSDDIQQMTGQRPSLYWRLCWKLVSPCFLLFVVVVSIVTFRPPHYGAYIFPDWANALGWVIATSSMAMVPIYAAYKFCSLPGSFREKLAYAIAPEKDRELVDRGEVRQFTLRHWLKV
- Procedure details: DA uptake: displacement of dopamine ligands in vitro (methods of Gu et al.)
- Cond: DA Uptake, Uptake Profile (IC50, nM), displacement of dopamine ligands in vitro
Each entry below lists one item and its recorded IC50 value.

Compound | IC50
OC(CN1CCCC(CCc2ccccc2)C1)c1ccc(Cl)cc1 (single isomer, unassigned) [compound 142] | < 1000 nM
FC(F)(F)c1cc(COC2CCCN(CC3(c4ccc(Cl)cc4)CCC3)C2)cc(C(F)(F)F)c1 (stereo not drawn) | > 1000 nM
FC(F)(F)c1ccc(SCC2CCCN(CC3(c4ccc(Cl)cc4)CCC3)C2)cc1 (stereo not drawn) | < 1000 nM
FC(F)(F)c1ccc(OCC2CNCCCO2)cc1 (stereo not drawn) | > 1000 nM
OC(CN1CCCC(CCc2ccccc2)C1)c1ccc(Cl)cc1 (stereo not drawn) [compound 140] | < 100 nM
OC(CN1CCCC(COc2ccc(C(F)(F)F)cc2)C1)C1(c2ccc(C(F)(F)F)cc2)CCC1 (stereo not drawn) | < 10 nM

Input line: Field: IC50 (dopamine transporter (Homo sapiens)). Entry: OC(CN1CCCC(COc2ccccc2)C1)C1(c2ccc(Cl)cc2)CCC1 (stereo not drawn)
Output line: < 100 nM

Input line: Field: IC50 (dopamine transporter (Homo sapiens)). Entry: OC(CN1CCCC(COc2ccc(C(F)(F)F)cc2)C1)c1c[nH]c2ccc(Cl)cc12 (stereo not drawn)
Output line: > 1000 nM

Input line: Field: IC50 (dopamine transporter (Homo sapiens)). Entry: Clc1ccc(C2(CN3CCC[C@@H](CNc4ccccc4)C3)CCC2)cc1
Output line: < 1000 nM

Input line: Field: IC50 (dopamine transporter (Homo sapiens)). Entry: CN(C)CC(Oc1ccc(C(F)(F)F)cc1)C1CCCN(CC2(c3ccc(Cl)cc3)CCC2)C1 (racemic) [compound 174]
Output line: < 100 nM

Input line: Field: IC50 (dopamine transporter (Homo sapiens)). Entry: OC(CN1CCCC(COc2ccc(C(F)(F)F)cc2)C1)C1(c2ccc(OC(F)(F)F)cc2)CCC1 (stereo not drawn)
Output line: < 100 nM

Input line: Field: IC50 (dopamine transporter (Homo sapiens)). Entry: OC1CCCN(CC2(c3ccc(Cl)cc3)CCC2)C1 (stereo not drawn)
Output line: < 1000 nM
